Below, each entry is listed alongside its reported Percent Effect.
# System: Trypanosoma brucei
# Procedure summary: Trypanosoma brucei 72 hour study
# Format: functional, organism-based
# Design: scale not given: in the data most compounds retested in dose-response had high values
# Measurement setup: 30.3 µM; […]
Among all 66,000 compounds or so, about 960 (1.5%) showed an effect of 50% or more. For the sample, strong results were picked, then their nearest neighbours and some compounds at random.
Supply the numeric figure in %, leaving out any unit text.

A selection of reference data follows.
{"Structure notation": "CCCN(CCC)c1ncc(S(=O)(=O)c2ccccc2)c(N)n1", "Reading unit": "%", "Percent Effect": 81.44}
{"Structure notation": "CCc1ccc(S(=O)(=O)N2Cc3c(CN(C)C)nn(C)c3C2)cc1.O=C(O)C(F)(F)F", "Reading unit": "%", "Percent Effect": -1.293}
{"Structure notation": "O=C(O)C(F)(F)F.c1coc(CN2CCO[C@H]3[C@H](OCC4CC4)CC[C@@H]32)c1", "Reading unit": "%", "Percent Effect": 0.4404}

Trypanosoma brucei Percent Effect of CCCN(CCC)c1ncc(S(=O)(=O)c2ccc(C)cc2)c(N)n1 is 0.2073

Item: CCS(=O)(=O)c1ccccc1N1CCC(NC2CCCC2)CC1 | System: Trypanosoma brucei | Percent Effect: 22.61

###

# Tested on: Trypanosoma brucei
# Procedure summary: Trypanosoma brucei 72 hour study
# Format: functional, organism-based
# Design: scale not given: in the data most compounds retested in dose-response had high values
# Measurement setup: 30.3 µM; […]
About 960 (1.5%) of roughly 66,000 compounds showed an effect of 50% or more. The sample holds strong results, similar compounds and a random draw of the others, so the mix is not that of the screen.
Returns: string. Value is true (1) if measured Percent Effect is below -20%, and false (0) if it is greater than or equal to it.

Given the entry CC(C)CN1CCC2(CCN(Cc3ccc(F)cc3)CC2)C1=O.O=C(O)C(F)(F)F , would its reported Percent Effect be below -20%?
false (0)

Hi there! Is Percent Effect for CO[C@H]1C[C@@H]2CN(C(=O)c3cccc4c3OCCO4)C[C@@H]2C1 below -20%, do you know?
true (1)

Lab note: Percent Effect threshold -20%. Does this molecule come in strictly under it? COCCNC(=O)N1CCCC1COc1ccccc1 (stereo unspecified)
false (0)

Is it true that Percent Effect reported for Cc1cc(C(=O)N2CCc3nc(C4CCCN4)ncc3C2)cs1.Cl (stereo unspecified) is less than -20%?
true (1)

I'd appreciate it if you could check whether Cc1noc(C)c1-c1cccc(C2CN(CC(=O)N(C)C)CCO2)n1.O=CO (stereo unspecified) has Percent Effect smaller than -20%.
false (0)

Given Cc1nc(C(=O)N2CC[C@@]3(C[C@@H](NS(C)(=O)=O)CCO3)C2)cs1 , is recorded Percent Effect strictly lower than -20%?
true (1)

Decide: Percent Effect of O=C(NCCc1cccs1)[C@H]1CO[C@H]2CCN(CC3CC3)C[C@H]2C1.O=C(O)C(F)(F)F strictly below -20%?
true (1)

Would you kindly verify if Percent Effect of Cc1nnc(CN2CCCC2c2ccsc2)o1 (stereo unspecified) is strictly less than -20%?
true (1)

###

# System: Trypanosoma brucei
# Procedure summary: Trypanosoma brucei 72 hour study
# Format: functional, organism-based
# Parameters: scale not given: in the data most compounds retested in dose-response had high values
# Measurement setup: 30.3 µM; […]
About 960 (1.5%) of roughly 66,000 compounds showed an effect of 50% or more. This is one part of a sample in which strong results are shown more often than they occur.
Measure: Percent Effect (%)
Kindly answer with a numeric value in %, unit omitted.

{"Molecule": "Cc1ccc(-c2nc(CCNC(=O)NC3CCC(O)CC3)co2)cc1 (stereo unspecified)", "Percent Effect, %": 17.54}

Bench note, Trypanosoma brucei: O=C(NC1CC1)N1CCOCC2(CCN(Cc3cccs3)C2)C1.O=C(O)C(F)(F)F (stereo unspecified) , Percent Effect reads -9.319

Reported Trypanosoma brucei Percent Effect for item COc1ccc(-c2nnsc2C(=O)N2CCC(C(N)=O)CC2)cc1 was 7.87

###

# Test system: Trypanosoma brucei
# Procedure summary: Trypanosoma brucei 72 hour study
# Type: functional, organism-based
# Set-up: scale not given: in the data most compounds retested in dose-response had high values
# Measurement setup: 30.3 µM; […]
Among all 66,000 compounds or so, about 960 (1.5%) showed an effect of 50% or more. Only a selection was taken, and strong results are over-represented in it overall.
Measure: Percent Effect

{"Molecule": "O=C(C1CCC1)N1CCC2(CCCN2CC2CC2)CC1.O=C(O)C(F)(F)F", "Tested system": "Trypanosoma brucei", "Result": "-53.73%"}
{"Molecule": "CC(C)(C)C(CCO)NC(=O)Nc1ccncc1 (stereo unspecified)", "Tested system": "Trypanosoma brucei", "Result": "-3.299%"}
{"Molecule": "CC1COCCN1Cc1nc(-c2ccsc2)no1 (stereo unspecified)", "Tested system": "Trypanosoma brucei", "Result": "-0.3401%"}
{"Molecule": "CN1CCN(Cc2cnc3n2CCN(Cc2cccnc2)CC3)CC1.O=C(O)C(F)(F)F.O=C(O)C(F)(F)F.O=C(O)C(F)(F)F", "Tested system": "Trypanosoma brucei", "Result": "-39.08%"}

Form: molecule = COCC1CN(C(=O)Nc2cc(Cl)cc(Cl)c2)CCO1 (stereo unspecified) ; Percent Effect = -16.88%

Value of Percent Effect reported for the molecule CN(C)C(=O)COCc1cncc2c1CCN(C1CCOCC1)C2.O=C(O)C(F)(F)F.O=C(O)C(F)(F)F is -55.36%

###

# System: Trypanosoma brucei
# Procedure summary: Trypanosoma brucei 72 hour study
# Format: functional, organism-based
# Parameters: scale not given: in the data most compounds retested in dose-response had high values
# Measurement setup: 30.3 µM; […]
Hit rate of the full screen: of about 66,000 compounds, about 960 (1.5%) showed an effect of 50% or more. The list comes from a sample in which strong results are over-represented; it also holds close analogues and randomly drawn compounds.
Measure: Percent Effect (%)
Lab book: enter the figure in %, no units written.

Here are 2 molecules together with their reported answers.
{"Molecule": "CCC(=O)N1CC[C@H]2[C@H](C[C@@H](Cn3cccn3)N2c2nccs2)C1.O=C(O)C(F)(F)F.O=C(O)C(F)(F)F", "Percent Effect / %": -3.444}
{"Molecule": "CC(C)(C)c1nc(CNC(=O)N2CCc3ccccc3C2CO)no1 (centres undefined)", "Percent Effect / %": 6.013}

// returns Percent Effect for Cc1ccc(CN(CCCn2ccnc2)Cc2cc(F)ccc2F)s1.O=C(O)CC(O)(CC(=O)O)C(=O)O with Trypanosoma brucei; value = -12.95

Short answer on Trypanosoma brucei for CC(C)N1CC[C@H]2[C@H](C[C@@H](Cn3cccn3)N2c2nccs2)C1.O=C(O)C(F)(F)F.O=C(O)C(F)(F)F.O=C(O)C(F)(F)F , Percent Effect: -34.12

###

# System: Trypanosoma brucei
# Procedure summary: Trypanosoma brucei 72 hour study
# Assay type: functional, organism-based
# Parameters: scale not given: in the data most compounds retested in dose-response had high values
# Measurement setup: 30 µM; 30.03 µM
The whole screen tested about 66,000 compounds, of which about 960 (1.5%) showed an effect of 50% or more. This is one part of a sample in which strong results are shown more often than they occur.
Known Percent Effect of a selection of compounds
Provide the measurement as a number trailed by its unit.

Examples from the recorded data:
{"Compound": "CC(C)n1ccnc1C1CCN(Cc2ccc(Cl)c(F)c2)CC1", "Percent Effect": "33.49%"}
{"Compound": "COCCN1C(=O)C[C@H]2[C@H]1CCN2Cc1cccc(C#N)c1.O=C(O)C(F)(F)F", "Percent Effect": "17.08%"}

Entry CC1=Nc2c(c(=O)[nH]n2C2CCCC2)C(c2ccc(O)cc2)S1 (stereo unspecified) , tested on Trypanosoma brucei, has a reported Percent Effect of -3.6%

Trypanosoma brucei Percent Effect of Cc1ccc(NC(=O)Cn2cc(I)cn2)cc1C is -62.87%

Measured Percent Effect (Trypanosoma brucei), entry Cc1cc(C)n(C2CCCN(C(=O)c3ccc(NC4CC4)nc3)C2)n1 (stereo unspecified) : 3.181%

Record Cc1cc(CN2CCC(c3nccn3C(C)C)CC2)ccc1F has Trypanosoma brucei Percent Effect equal to -24.52%

###

# System: Trypanosoma brucei
# Procedure summary: Trypanosoma brucei 72 hour study
# Format: functional, organism-based
# Parameters: scale not given: in the data most compounds retested in dose-response had high values
# Measurement setup: 30 µM; 30.03 µM
Among all 66,000 compounds or so, about 960 (1.5%) showed an effect of 50% or more. What follows is part of a selection rich in strong results, with near analogues and random picks from the rest.
List of Percent Effect values.
Value expressed in %; do not type the unit.

Per the records, this compound ( Cc1nc(CC(=O)N2CCCN(c3ccc(C#N)cc3)CC2)cs1 ) has Percent Effect equal to 7.071

Recorded result, CS(=O)(=O)NCc1cnc2n1CCN(Cc1cccnc1)CC2.O=C(O)C(F)(F)F.O=C(O)C(F)(F)F , Percent Effect: -10.23

Memo: CN(CCO)CC1COCCN1C(=O)CCC1CCCC1.O=CO (stereo unspecified) , reported Percent Effect: -33.47

GET /value?item= COc1ccc(CC(=O)N2CCCN(c3ccc(C#N)cc3)CC2)cc1 &field=Percent Effect returns 55.65

Per the record, N#CC1(C(=O)N2C[C@H]3CC[C@@H]2CN(Cc2cscn2)C3)CCOCC1 has Percent Effect of -52.3

Briefly, Percent Effect measured for COCCCNC(=O)NCc1cccn1Cc1ccccc1C : -24.61

Entry CCC(C)NC(=O)c1nnn(-c2cccc3c2CCN(C)C3)c1C (stereo unspecified) — recorded Percent Effect = 31.65

Documented Percent Effect of CN1CCCC(CCC(=O)NCCc2nnc(N)s2)C1 (stereo unspecified) : 1.066

Lookup result for CC(C)N(C)S(=O)(=O)c1ccc2c(c1)CCN(C(=O)c1cscn1)C2 ; measured Percent Effect: -38.59

For this compound ( O=C(C1CCC1)N1C[C@@H]2CC[C@H](C1)N(S(=O)(=O)c1cccnc1)C2 ), measured Percent Effect is -15.99

Percent Effect reading for CC(C)(C)n1ncc2c1CCCC2NCc1ccsc1 (stereo unspecified) : -15.69

Data provenance is ChEMBL document CHEMBL3988442.
